- assayedSystem: mouse TRPM3α2 (mTRPM3) ion channel (Mus musculus (Mouse))
- Sequence (J9SQF3 other isoform, or with tags, fused parts or gaps): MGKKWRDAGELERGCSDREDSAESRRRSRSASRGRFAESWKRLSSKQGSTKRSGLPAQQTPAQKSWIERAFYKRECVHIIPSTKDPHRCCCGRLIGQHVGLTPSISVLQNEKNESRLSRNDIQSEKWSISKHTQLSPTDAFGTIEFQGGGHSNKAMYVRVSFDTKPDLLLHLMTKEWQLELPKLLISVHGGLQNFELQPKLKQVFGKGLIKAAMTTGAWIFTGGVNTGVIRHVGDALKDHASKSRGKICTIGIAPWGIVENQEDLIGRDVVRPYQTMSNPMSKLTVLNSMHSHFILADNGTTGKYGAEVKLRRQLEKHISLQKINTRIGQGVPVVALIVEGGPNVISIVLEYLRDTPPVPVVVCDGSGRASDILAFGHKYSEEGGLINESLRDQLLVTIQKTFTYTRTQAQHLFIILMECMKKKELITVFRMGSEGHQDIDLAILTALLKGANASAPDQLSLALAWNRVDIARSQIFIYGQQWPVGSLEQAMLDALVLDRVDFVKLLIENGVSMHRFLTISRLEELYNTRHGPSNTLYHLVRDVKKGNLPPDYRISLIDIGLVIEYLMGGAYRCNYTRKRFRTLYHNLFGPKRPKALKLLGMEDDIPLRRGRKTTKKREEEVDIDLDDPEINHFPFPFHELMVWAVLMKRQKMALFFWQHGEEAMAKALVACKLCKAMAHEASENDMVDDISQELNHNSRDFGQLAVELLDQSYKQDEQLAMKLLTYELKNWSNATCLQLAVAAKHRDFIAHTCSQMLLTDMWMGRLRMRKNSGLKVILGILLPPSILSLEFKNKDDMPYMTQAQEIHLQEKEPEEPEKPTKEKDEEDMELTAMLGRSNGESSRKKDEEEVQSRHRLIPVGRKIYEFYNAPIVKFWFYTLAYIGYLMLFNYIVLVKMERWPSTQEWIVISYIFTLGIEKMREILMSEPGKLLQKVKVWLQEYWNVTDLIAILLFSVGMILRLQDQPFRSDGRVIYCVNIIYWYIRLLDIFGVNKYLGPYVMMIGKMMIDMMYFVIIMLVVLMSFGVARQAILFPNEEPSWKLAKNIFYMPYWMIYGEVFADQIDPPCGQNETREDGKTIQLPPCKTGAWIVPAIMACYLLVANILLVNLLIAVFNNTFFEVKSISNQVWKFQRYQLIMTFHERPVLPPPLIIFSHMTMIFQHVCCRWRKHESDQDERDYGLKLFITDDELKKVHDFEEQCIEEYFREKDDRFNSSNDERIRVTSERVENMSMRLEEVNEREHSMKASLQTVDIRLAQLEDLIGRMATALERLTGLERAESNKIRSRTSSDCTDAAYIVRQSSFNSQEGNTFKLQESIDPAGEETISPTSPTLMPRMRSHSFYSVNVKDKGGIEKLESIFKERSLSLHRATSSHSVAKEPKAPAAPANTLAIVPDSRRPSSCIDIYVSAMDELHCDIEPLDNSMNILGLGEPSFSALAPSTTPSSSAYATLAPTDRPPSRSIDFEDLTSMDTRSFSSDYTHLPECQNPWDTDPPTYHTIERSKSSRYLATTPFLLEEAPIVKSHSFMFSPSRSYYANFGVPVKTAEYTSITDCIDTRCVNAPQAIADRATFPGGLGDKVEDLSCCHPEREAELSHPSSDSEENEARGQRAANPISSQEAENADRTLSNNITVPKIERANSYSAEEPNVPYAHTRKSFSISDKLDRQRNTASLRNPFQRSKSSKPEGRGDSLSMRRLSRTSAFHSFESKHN
- assayOverview: TRPM3 ion channel driven Ca2+ uptake, Fluo-4 AM assay, mTRPM3alpha2 overexpressing flip-in HEK293 cells stimulated with pregnenolone sulfate
- Format: cell-based
- testConditions: PS (50 μM) stimulated, cpds. 500-599
pIC50: −log10 of the molar value.
// reported pIC50 per item
propertyName: pIC50

{"columns": ["compound", "propertyName", "measuredValue"],
 "data": [
  ["Cc1oc2ccc(OCc3cn(C)nn3)cc2c1C(=O)NC1CCNCC1(F)F (single isomer, unassigned) [cpd 540-En 2]", "pIC50", "< 4.70"],
  ["Cc1oc2ccc(OCc3ncccc3F)cc2c1C(=O)NC1CCNCC1(F)F (single isomer, unassigned) [cpd 566-En 1]", "pIC50", "> 6.00"],
  ["COc1ncccc1COc1ccc2oc(C)c(C(=O)NC3(C(N)=O)COC3)c2c1", "pIC50", "> 6.00"],
  ["Cc1cnc(COc2ccc3oc(C)c(C(=O)NC4CCNCC4(F)F)c3c2)cn1 (single isomer, unassigned) [cpd 554-En 2]", "pIC50", "< 4.70"],
  ["Cc1oc2ccc(OCc3cccnc3C(F)(F)F)cc2c1C(=O)NC1CCNCC1(F)F (single isomer, unassigned) [cpd 539-En 1]", "pIC50", "4.70 to 6.00"],
  ["Cc1ncsc1COc1ccc2oc(C)c(C(=O)NC3(C(=O)N(C)C)COC3)c2c1", "pIC50", "> 6.00"],
  ["Cc1ncsc1COc1ccc2oc(C)c(C(=O)NCC(C)(C)C(N)=O)c2c1", "pIC50", "> 6.00"],
  ["Cc1cc(COc2ccc3oc(C)c(C(=O)NC4CCNCC4(F)F)c3c2)no1 (single isomer, unassigned) [cpd 553-En 1]", "pIC50", "> 6.00"],
  ["Cc1oc2ccc(OCc3cccnc3C(F)(F)F)cc2c1C(=O)NC1(CO)CCCOC1 (single isomer, unassigned)", "pIC50", "> 6.00"],
  ["Cc1ncc(COc2ccc3oc(C)c(C(=O)NC4(CO)COC4)c3c2)s1", "pIC50", "> 6.00"],
  ["Cc1oc2ccc(OCc3ncn(C)n3)cc2c1C(=O)NC1CCNCC1(F)F (single isomer, unassigned) [cpd 542-En 1]", "pIC50", "4.70 to 6.00"],
  ["Cc1ncc(COc2ccc3oc(C)c(C(=O)NC4(C(N)=O)COC4)c3c2)s1", "pIC50", "> 6.00"],
  ["Cc1ncsc1COc1ccc2oc(C)c(C(=O)N(C)C3(CO)COC3)c2c1", "pIC50", "> 6.00"],
  ["Cc1oc2ccc(OCc3nccs3)cc2c1C(=O)NC1(C(N)=O)COC1", "pIC50", "> 6.00"],
  ["Cc1ncc(COc2ccc3oc(C)c(C(=O)NC4(CO)CCOC4)c3c2)s1 (single isomer, unassigned)", "pIC50", "> 6.00"]
]}
